Kindly supply the reported Biodistribution: Bone values for the records listed here.
procedure summary: In vivo biodistribution in mice
Parameters: species or system normal CD-1 male mice
experimental context: iv, 120 min post injection
Please give a number only; it is taken to be in % dose/g.

// query Any idea what Biodistribution: Bone was measured for O=C([O-])CN(CCN(CC(=O)[O-])Cc1cc(CCC(=O)NC(P(=O)(O)O)P(=O)(O)O)ccc1[O-])Cc1cc(CCC(=O)NCCCCCC(=O)NCCCC[C@H](NC(=O)N[C@@H](CCC(=O)O)C(=O)O)C(=O)O)ccc1[O-].[68Ga+3] [[^68Ga]1g] ?
// result 17.0

// query State the recorded Biodistribution: Bone for this entry: O=C([O-])CN(CCN(CC(=O)[O-])Cc1cc(CCC(=O)N[C@@H](CC(=O)O)C(=O)O)ccc1[O-])Cc1cc(CCC(=O)NC(P(=O)(O)O)P(=O)(O)O)ccc1[O-].[68Ga+3] [[^68Ga]1e]
// result 17.6
